# target.desc: α4β2 subtype (Homo sapiens, UniProt P17787+P43681)
# Sequence (P43681 29-627 limits assumed): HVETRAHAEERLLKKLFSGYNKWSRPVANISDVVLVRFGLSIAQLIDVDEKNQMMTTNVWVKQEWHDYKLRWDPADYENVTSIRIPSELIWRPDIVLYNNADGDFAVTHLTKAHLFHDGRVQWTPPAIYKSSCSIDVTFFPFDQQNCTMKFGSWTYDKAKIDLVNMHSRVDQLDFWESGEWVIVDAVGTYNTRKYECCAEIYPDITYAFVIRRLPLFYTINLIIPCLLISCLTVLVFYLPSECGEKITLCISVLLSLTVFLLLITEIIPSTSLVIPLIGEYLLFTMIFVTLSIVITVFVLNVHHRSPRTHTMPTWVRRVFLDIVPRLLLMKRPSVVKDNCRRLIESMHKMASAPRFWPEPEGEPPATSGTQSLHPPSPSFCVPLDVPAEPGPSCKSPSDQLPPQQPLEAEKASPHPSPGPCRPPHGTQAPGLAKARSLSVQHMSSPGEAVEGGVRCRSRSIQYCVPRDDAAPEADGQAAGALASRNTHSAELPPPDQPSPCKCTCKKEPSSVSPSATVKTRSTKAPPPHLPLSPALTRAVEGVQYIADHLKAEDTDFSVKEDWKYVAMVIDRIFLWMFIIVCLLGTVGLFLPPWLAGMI
# Sequence (P17787 26-502): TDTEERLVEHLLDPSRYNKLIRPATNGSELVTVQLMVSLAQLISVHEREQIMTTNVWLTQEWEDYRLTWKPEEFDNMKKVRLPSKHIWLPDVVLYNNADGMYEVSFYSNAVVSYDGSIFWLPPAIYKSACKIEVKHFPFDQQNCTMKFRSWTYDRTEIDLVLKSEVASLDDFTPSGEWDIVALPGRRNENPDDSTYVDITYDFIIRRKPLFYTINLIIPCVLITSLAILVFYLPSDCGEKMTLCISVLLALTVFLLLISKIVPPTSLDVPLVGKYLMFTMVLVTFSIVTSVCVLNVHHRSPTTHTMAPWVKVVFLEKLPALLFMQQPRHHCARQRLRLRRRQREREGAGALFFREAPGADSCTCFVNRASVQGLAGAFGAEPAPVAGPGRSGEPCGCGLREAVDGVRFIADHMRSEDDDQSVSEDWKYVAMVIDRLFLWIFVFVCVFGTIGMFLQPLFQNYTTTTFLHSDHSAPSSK
# protocol.details: In vitro pharmacology: antagonism at the α4β2 subtype
# Assay type: biochemical
# setup.conditions: read-out: IC50, antagonist at the α4β2 subtype
readout.kind: IC50 (µM)
The answer is to be given in µM; state only the numeric part.

Cl.Cl.c1cncc(N2CCC3(CCCN3)C2)c1 (stereo not shown) [Sample 1, dihydrochloride] has a reported IC50 of 193

These data points were gathered from patent US20060058328A1.
